- Measured target: Nav1.9 K799N (Homo sapiens, UniProt Q9UI33, K799N)
- Construct: expressed in transfected cells; host or cells: HEK-293-β1/β2
- Sequence (Q9UI33 whole entry K799N): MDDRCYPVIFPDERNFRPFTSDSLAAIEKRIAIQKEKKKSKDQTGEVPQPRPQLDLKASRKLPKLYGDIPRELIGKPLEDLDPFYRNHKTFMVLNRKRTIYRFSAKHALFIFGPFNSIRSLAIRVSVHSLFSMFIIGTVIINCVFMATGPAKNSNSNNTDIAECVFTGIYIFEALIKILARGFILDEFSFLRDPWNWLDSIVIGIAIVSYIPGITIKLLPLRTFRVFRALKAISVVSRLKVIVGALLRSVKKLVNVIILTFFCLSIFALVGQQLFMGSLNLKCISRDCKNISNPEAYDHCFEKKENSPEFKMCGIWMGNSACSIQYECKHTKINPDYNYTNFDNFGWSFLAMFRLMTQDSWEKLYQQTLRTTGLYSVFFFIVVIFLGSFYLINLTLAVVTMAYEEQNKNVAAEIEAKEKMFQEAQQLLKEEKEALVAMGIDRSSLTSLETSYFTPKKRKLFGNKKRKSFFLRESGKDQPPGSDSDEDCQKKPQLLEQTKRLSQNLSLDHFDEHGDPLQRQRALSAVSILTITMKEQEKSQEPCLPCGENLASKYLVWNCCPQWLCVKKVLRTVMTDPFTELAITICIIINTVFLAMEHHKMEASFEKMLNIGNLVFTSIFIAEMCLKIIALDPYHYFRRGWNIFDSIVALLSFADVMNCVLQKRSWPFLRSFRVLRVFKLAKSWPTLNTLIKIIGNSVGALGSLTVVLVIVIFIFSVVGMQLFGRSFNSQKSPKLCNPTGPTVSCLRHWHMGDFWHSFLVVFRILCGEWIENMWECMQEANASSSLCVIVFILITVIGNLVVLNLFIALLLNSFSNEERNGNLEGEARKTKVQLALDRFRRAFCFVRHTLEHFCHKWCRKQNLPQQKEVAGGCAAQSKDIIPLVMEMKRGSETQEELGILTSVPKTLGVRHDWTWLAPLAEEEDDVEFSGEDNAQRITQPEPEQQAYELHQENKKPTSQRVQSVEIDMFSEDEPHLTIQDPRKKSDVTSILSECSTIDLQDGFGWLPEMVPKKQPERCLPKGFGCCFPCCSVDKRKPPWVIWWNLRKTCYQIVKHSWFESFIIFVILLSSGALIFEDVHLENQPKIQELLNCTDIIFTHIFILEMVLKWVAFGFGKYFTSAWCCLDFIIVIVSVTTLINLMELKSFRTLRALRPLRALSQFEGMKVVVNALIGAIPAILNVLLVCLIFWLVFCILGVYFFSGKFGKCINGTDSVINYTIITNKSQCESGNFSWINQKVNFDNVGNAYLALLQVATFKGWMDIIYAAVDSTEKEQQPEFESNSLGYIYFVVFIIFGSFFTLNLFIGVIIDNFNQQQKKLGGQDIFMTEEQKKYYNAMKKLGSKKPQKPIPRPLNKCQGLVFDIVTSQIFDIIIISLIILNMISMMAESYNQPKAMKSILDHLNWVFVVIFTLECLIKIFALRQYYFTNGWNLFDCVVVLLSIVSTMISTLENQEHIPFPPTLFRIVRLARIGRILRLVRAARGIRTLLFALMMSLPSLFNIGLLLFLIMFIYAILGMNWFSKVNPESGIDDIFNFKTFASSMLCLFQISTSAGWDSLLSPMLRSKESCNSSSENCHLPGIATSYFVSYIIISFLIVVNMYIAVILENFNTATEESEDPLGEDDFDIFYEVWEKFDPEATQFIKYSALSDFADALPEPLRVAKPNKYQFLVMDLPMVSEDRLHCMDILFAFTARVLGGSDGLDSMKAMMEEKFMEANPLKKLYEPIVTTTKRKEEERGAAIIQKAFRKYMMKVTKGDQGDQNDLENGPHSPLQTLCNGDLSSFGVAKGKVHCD
- Sequence (Q07699 19-218 partner): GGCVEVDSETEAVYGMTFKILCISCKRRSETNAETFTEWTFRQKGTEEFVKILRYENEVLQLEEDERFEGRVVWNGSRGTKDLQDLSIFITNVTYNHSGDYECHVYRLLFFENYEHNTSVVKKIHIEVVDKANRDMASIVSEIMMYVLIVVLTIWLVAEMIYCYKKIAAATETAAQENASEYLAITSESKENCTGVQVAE
- Protocol notes: PatchXpress whole-cell voltage clamp, inhibition of the human Nav1.9 K799N mutant in HEK-293 cells
- Type: cell-based
- Test settings: in figure, protocol of Fig 2
Observation type: pIC50
pIC50 field: float, defined as -log10 of concentration (mol/L).

Quickly give me recorded pIC50 for CCOC(=O)c1ccc(N)cc1
3.52

----------
- Measured target: Human Nav1.8 (Homo sapiens)
- Sequence (Q9Y5Y9 whole entry): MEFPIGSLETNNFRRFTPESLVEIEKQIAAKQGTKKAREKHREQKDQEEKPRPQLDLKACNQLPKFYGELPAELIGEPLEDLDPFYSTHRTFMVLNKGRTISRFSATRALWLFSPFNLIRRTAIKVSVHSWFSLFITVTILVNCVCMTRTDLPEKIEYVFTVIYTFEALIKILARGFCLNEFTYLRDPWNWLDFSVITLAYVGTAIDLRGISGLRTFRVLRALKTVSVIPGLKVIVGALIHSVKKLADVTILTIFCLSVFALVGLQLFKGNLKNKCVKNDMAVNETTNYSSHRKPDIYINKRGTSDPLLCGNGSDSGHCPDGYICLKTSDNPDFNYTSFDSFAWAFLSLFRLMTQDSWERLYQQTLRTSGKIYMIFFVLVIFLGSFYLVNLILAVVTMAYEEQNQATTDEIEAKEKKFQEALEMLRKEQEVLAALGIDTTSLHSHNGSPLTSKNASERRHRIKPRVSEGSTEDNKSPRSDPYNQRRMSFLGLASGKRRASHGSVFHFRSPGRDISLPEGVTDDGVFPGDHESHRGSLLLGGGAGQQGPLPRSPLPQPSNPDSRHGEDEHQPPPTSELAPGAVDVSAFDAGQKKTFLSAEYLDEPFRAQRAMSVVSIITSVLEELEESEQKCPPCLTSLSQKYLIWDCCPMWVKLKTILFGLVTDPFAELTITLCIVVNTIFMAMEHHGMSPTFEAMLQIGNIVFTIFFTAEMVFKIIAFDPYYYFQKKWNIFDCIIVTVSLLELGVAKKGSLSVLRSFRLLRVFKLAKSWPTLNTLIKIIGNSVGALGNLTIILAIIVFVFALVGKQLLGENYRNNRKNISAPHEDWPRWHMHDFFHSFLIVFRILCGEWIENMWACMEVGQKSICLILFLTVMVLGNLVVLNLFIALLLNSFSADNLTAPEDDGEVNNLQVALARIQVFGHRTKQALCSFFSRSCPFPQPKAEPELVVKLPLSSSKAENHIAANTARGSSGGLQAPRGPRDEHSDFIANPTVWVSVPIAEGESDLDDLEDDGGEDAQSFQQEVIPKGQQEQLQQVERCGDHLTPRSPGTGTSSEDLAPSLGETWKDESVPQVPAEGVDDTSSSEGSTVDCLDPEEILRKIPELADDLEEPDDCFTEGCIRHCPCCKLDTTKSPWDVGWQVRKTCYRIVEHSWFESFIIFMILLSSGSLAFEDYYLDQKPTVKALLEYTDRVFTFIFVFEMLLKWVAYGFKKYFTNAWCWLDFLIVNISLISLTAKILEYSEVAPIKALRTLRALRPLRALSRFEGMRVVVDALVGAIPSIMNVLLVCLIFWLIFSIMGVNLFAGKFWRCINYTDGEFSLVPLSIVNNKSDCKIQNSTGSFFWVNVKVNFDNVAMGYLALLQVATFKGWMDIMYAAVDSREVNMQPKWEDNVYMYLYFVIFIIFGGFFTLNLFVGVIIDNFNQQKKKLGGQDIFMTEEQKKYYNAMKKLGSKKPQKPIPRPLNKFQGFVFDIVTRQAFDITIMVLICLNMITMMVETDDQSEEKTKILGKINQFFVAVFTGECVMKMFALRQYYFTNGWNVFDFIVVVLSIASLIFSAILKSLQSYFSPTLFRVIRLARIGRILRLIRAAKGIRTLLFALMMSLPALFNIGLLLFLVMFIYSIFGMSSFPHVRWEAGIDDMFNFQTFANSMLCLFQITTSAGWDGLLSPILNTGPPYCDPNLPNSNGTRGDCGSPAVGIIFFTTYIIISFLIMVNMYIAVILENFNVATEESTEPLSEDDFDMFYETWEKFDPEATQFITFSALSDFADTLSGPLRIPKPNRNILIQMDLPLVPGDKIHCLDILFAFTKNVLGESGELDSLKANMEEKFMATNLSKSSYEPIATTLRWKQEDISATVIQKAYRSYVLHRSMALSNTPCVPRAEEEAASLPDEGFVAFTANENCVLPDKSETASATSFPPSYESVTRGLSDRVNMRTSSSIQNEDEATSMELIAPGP
- Protocol notes: Whole-cell voltage clamp, inhibition of human Nav1.8
- Test settings: ~50% inactivated
Observation type: pIC50
pIC50 field: float, defined as -log10 of concentration (mol/L).

CCCCNc1ccc(C(=O)OCCN(C)C)cc1 [Tetracaine]
6.52

We next turn to a different compound, shown below.
Quickly give me recorded pIC50 for Cc1cccc(C)c1OCC(C)N (centres unmarked) [Mexiletine]
4.74

----------
- Measured target: Human Nav1.9 (Homo sapiens, UniProt Q9UI33)
- Construct: expressed in transfected cells; host or cells: HEK-293 stably expressing human β1/β2
- Sequence (Q9UI33 whole entry): as the sequence (Q9UI33 whole entry K799N) above, with N799K counted along it
- Sequence (Q07699 19-218 partner): as the sequence (Q07699 19-218 partner) above
- Protocol notes: PatchXpress whole-cell voltage clamp, inhibition of human Nav1.9 (+β1/β2) currents in HEK-293 cells
- Assay type: cell-based
- Test settings: holding potential -140 mV; read-out: IC50 for inhibition of Nav1.9 at holding potential -140 mV
Observation type: pIC50
pIC50 field: float, defined as -log10 of concentration (mol/L).

Quickly give me recorded pIC50 for CCCCNc1ccc(C(=O)OCCN(C)C)cc1
4.27

----------
- Measured target: Human Nav1.9 (Homo sapiens, UniProt Q9UI33)
- Construct: expressed in transfected cells; host or cells: HEK-293 stably expressing human β1/β2
- Protocol notes: PatchXpress whole-cell voltage clamp, inhibition of human Nav1.9 (+β1/β2) currents in HEK-293 cells
- Format: cell-based
- Test settings: in figure, holding potential -120 mV; read-out: IC50 for inhibition of human Nav1.9 WT
Observation type: IC50 (µM)
Express the result in µM but write the number alone.

Quickly give me recorded IC50 for CCOC(=O)c1ccc(N)cc1
400

----------
- Measured target: Rat Nav1.9 (Rattus norvegicus, UniProt O88457)
- Protocol notes: PatchXpress whole-cell voltage clamp, inhibition of rat Nav1.9 (+rat β1/β2) in HEK-293 cells
Observation type: IC50 (µM)
Express the result in µM but write the number alone.

Quickly give me recorded IC50 for CCCCNc1ccc(C(=O)OCCN(C)C)cc1
7.6
